# experimental_system: IRAK4 (Homo sapiens, UniProt Q9NWZ3)
# Sequence (Q9NWZ3 whole entry): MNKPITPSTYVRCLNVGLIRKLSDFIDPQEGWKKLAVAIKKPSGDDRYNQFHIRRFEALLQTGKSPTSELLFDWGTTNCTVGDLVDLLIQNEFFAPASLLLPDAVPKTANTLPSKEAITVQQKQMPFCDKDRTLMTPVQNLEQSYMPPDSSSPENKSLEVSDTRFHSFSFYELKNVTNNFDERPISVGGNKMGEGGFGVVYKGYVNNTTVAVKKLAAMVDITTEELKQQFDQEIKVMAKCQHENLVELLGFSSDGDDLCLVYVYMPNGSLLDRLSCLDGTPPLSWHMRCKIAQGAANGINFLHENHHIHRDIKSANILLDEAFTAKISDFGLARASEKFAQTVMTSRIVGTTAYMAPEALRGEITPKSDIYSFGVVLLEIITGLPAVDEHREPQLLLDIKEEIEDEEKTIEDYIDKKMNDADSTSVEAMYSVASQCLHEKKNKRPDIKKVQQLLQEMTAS
# procedure_summary: OCI-LY-10 MSD assay for IRAK4 DC50
# Type: cell-based
# Parameters: endogenous in cells; host or cells: OCI-LY10
# experimental_setup: OCI-LY10 cells, 4 hr incubation, concentration required to degrade 50% of protein
Consider the following molecules and their measured DC50 readings.

- O=C1CCC(N2C(=O)c3cccc(N4CCN(CCOCCNC(=O)c5ccc(-n6cc(NC(=O)c7coc(-c8ccnc(NCC9CC9)c8)n7)c(C(F)F)n6)cc5)CC4)c3C2=O)C(=O)N1 (stereo not drawn): 100 to 500 nM
- CN(CCOCCOCCCc1ccc2c(c1)C(=O)N(C1CCC(=O)NC1=O)C2=O)C(=O)c1ccc(-n2cc(NC(=O)c3coc(-c4ccnc(NCC5CC5)c4)n3)c(C(N)=O)n2)cc1 (stereo not drawn): < 50 nM

Name the reported DC50 value associated with the molecule CN(CCOCCOCCCc1ccc2c(c1)C(=O)N(C1CCC(=O)NC1=O)C2=O)Cc1ccc(-n2cc(NC(=O)c3coc(-c4ccnc(NCC5CC5)c4)n3)c(C(N)=O)n2)cc1 (stereo not drawn)
50 to 100 nM

Need DC50, item Cn1c(=O)n(C2CCC(=O)NC2=O)c2ccc(CCCN3CCO[C@@H](CNCc4ccc(-n5cc(NC(=O)c6coc(-c7ccnc(NCC(F)(F)F)c7)n6)c(C(F)F)n5)cc4)C3)cc21 (stereo partly drawn)
50 to 100 nM

Return reported DC50; argument: CN(CCOCCOCCCc1ccc2c(c1)C(=O)N(C1CCC(=O)NC1=O)C2=O)C(=O)c1ccc(-n2cc(NC(=O)c3coc(-c4ccnc(NCC(F)(F)F)c4)n3)c(C(F)F)n2)cc1 (stereo not drawn)
50 to 100 nM

Returns the measured DC50 for the input molecule. Input: CN(CC(=O)N(C)CC(=O)N(C)CC(=O)N(C)CCCc1cccc2c1n(C)c(=O)n2C1CCC(=O)NC1=O)Cc1nn(C)cc1NC(=O)c1coc(-c2ccnc(NCC(F)(F)F)c2)n1 (stereo not drawn)
> 1000 nM

Tell me the measured DC50 of O=C1CCC(N2C(=O)c3cccc(OCc4cn(CCOCCOCCNCc5ccc(-n6cc(NC(=O)c7coc(-c8ccnc(NCC9CC9)c8)n7)c(C(F)F)n6)cc5)nn4)c3C2=O)C(=O)N1 (stereo not drawn) , please.
50 to 100 nM

State the recorded DC50 for this entry: Cc1ncsc1-c1ccc(CNC(=O)[C@@H]2C[C@@H](O)CN2C(=O)[C@@H](NCCOCCOCCOCCNCc2nn(C)cc2NC(=O)c2coc(-c3ccnc(NCC(F)(F)F)c3)n2)C(C)(C)C)cc1
> 1000 nM

Could you tell me which DC50 is on file for Cn1cc(NC(=O)c2coc(-c3ccnc(NCC(F)(F)F)c3)n2)c(C(=O)NCCCOCC(C)(C)COCCCc2cccc3c2n(C)c(=O)n3C2CCC(=O)NC2=O)n1 (stereo not drawn) ?
> 1000 nM

* * *

# experimental_system: IRAK4 (Homo sapiens)
# procedure_summary: OCI-LY-10 degradation assay (western blot, % IRAK4 degraded after 4 hours)
# Format: cell-based
# Parameters: endogenous in cells; host or cells: OCI-LY10
# experimental_setup: OCI-LY10 cells, IRAK4 degraded after 4 hours, western blot
# Procedure: Compounds were reconstituted in DMSO to make stock solutions at concentration of 60 mM. THP-1 and OCI-LY10 cells were maintained in RPMI-1640 medium containing 10% FBS, 0.5 μM 2-ME or 20% FBS, 55 μM 2-ME, and 1% L-Glutamine respectively. […] The protein concentration of cell lysates was quantified with Pierce™ BCA Protein Assay Kit (Pierce, 23227). […] After incubation at 37° C. for 30 min, the absorbance of samples at 562 nm were measured with EnVision Plate Reader. […]
readout_type: OCI-LY10 % IRAK4 Degradation

Reference set, count: 4
* Cc1ccc(NS(=O)(=O)c2ccc(CNC(=O)COCCOCCOCCOCCOCCNC(=O)c3ccc(-n4cc(NC(=O)c5coc(-c6ccnc(NCC(F)(F)F)c6)n5)c(C(N)=O)n4)cc3)cc2)c2[nH]cc(C#N)c12 [I-114] | C (<20% degradation)
* O=C1CCC(N2C(=O)c3cccc(NCCOCCOCCOCC(F)CNC(=O)c4cnc(Nc5ccc6ncsc6c5)cc4NC4CC4)c3C2=O)C(=O)N1 (centres unmarked) [I-54] | C (<20% degradation)
* NC(=O)c1nn(-c2ccc(C(=O)NCC#CC#CCCNc3cccc4c3C(=O)N(C3CCC(=O)NC3=O)C4=O)cc2)cc1NC(=O)c1coc(-c2ccnc(NCC(F)(F)F)c2)n1 (centres unmarked) [I-178] | C (<20% degradation)
* NC(=O)c1nn(-c2ccc(C(=O)NCCOCCOCCNc3cccc4c3C(=O)N(C3CCC(=O)NC3=O)C4=O)cc2)cc1NC(=O)c1cccc(-c2ccnc(NCC(F)(F)F)c2)n1 (centres unmarked) [I-137] | B (>20-50% degradation)

# OCI-LY10 % IRAK4 Degradation lookup, item CN(CCOCCOCCNc1cccc2c1C(=O)N(C1CCC(=O)NC1=O)C2=O)C(=O)[C@H]1C[C@H](NC(=O)c2cnc(Nc3ccc4cnccc4n3)cc2NC2CC2)C1 (some centres unmarked) [I-44]
B (>20-50% degradation)

Please report the recorded OCI-LY10 % IRAK4 Degradation for CC(CNc1cccc2c1C(=O)N(C1CCC(=O)NC1=O)C2=O)OCCOCCOCC(F)CNC(=O)c1cnc(Nc2ccc3cnccc3n2)cc1NC1CC1 (centres unmarked) [I-93] .
C (<20% degradation)

Sample CC[C@@H]1[C@H](F)C(=O)N[C@@H]1COc1nccc2cc(C(=O)NCCOCCOCCOCCOCCNC(=O)COc3cccc4c3C(=O)N(C3CCC(=O)NC3=O)C4=O)c(OC)cc12 (some centres unmarked) [I-103] — what was its OCI-LY10 % IRAK4 Degradation?
C (<20% degradation)

Please give the measured OCI-LY10 % IRAK4 Degradation for this molecule: N#Cc1cnc2c(cnn2-c2cc(NC3CC3)c(C(=O)N[C@H]3CC[C@H](COCCOCCOCCOCCNC(=O)COc4cccc5c4C(=O)N(C4CCC(=O)NC4=O)C5=O)CC3)cn2)c1 (some centres unmarked) [I-18]
B (>20-50% degradation)

Entry CC(C)(OCCOCCNC(=O)COc1cccc2c1C(=O)N(C1CCC(=O)NC1=O)C2=O)C(F)CNC(=O)c1cnc(-n2ncc3cc(C#N)cnc32)cc1NC1CC1 (centres unmarked) [I-101] : reported OCI-LY10 % IRAK4 Degradation = ?
C (<20% degradation)

Quick one: OCI-LY10 % IRAK4 Degradation for CC[C@@H]1[C@H](F)C(=O)N(CCOCCOCCOCCOCCNc2cccc3c2C(=O)N(C2CCC(=O)NC2=O)C3=O)[C@@H]1COc1nccc2cc(C(N)=O)c(OC)cc12 (some centres unmarked) [I-89] ?
C (<20% degradation)
